Listed here: items and their measured EC50 hNPY2R 100% hP (CreLuc).
# target.under.test: T1, human neuropeptide Y2 receptor (human, UniProt P49146 1-381)
# T1 sequence (looked up): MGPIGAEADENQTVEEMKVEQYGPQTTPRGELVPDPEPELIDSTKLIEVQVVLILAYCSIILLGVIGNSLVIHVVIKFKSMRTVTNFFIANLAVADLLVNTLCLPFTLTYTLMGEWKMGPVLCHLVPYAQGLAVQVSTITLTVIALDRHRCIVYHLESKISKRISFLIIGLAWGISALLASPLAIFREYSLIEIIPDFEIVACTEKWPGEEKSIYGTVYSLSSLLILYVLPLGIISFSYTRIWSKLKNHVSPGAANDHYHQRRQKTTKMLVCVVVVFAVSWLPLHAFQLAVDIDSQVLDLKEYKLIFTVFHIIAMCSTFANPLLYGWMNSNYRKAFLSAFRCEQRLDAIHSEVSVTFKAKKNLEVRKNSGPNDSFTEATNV
# assay.info: cell-based or functional assay
Starred links: 1 amine or outer side, 2 acyl side, 3 side chain; linkers in the order of their positions; H or OH if unused. Non-standard residues stand in square brackets, D forms with d. Groups on a side chain read outwards from the residue. No end group written: not given here. *: point of attachment. C20 diacid = O=C(O)CCCCCCCCCCCCCCCCCCC(=O)*; C18 diacid = O=C(O)CCCCCCCCCCCCCCCCC(=O)*; γGlu = O=C(O)[C@H](CCC(=O)[*:2])N[*:1]; AEEA = NCCOCCOCC(=O)O; Aib = CC(C)(N)C(=O)O; OEG = OEG spacer
property: EC50 hNPY2R 100% hP (CreLuc) (nM)

| binder | unit.symbol | test.result |
| --- | --- | --- |
| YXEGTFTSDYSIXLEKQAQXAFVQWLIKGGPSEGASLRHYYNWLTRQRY (Aib at 2, 13, 20; K28 side chain acylated with C18DA-gGlu-gGlu-gGlu-gGlu-gGlu-gGlu-eLys; C-terminal amide (NH2)) [Compound 265] | nM | 23 |
| Y[Aib]EGTFTSDYSI[Aib]LEKQAQ[Aib]AFVQWLIK([OEG-OEG-γGlu-γGlu-γGlu-C18 diacid])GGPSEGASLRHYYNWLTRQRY-NH2 (also: TFA salt) [Compound 266] | nM | 22.9 |
| Y[Aib]EGTFTSDYSI[Aib]LEKQAQ[Aib]AFVEWLIK([Glu-Glu-Glu-Glu-Glu-Glu-C18 diacid])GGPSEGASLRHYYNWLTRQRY-NH2 (also: TFA salt) [Compound 302] | nM | 173 |
| Y[Aib]EGTFTSDYSI[Aib]LEKQAQ[Aib]AFVEWLIK([AEEA-γGlu-γGlu-γGlu-C18 diacid])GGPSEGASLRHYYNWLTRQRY-NH2 (also: TFA salt) [Compound 300] | nM | 89.3 |
| Y[Aib]EGTFTSDYSI[Aib]LEKQAQ[Aib]EFVEWLIK([AEEA-AEEA-γGlu-γGlu-γGlu-C18 diacid])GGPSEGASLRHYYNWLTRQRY-NH2 (also: TFA salt) [Compound 284] | nM | 44.7 |
| Y[Aib]EGTFTSDYSI[Aib]LEKQAE[Aib]AFVEWLIK([γGlu-γGlu-γGlu-γGlu-C18 diacid])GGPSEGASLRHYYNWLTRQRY-NH2 (also: TFA salt) [Compound 262] | nM | 58.2 |
| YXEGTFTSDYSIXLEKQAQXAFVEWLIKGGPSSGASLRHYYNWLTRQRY (Aib at 2, 13, 20; K28 side chain acylated with C18DA-gGlu-gGlu-gGlu-gGlu-gGlu-OEG-OEG; C-terminal amide (NH2)) [Compound 261] | nM | 64 |
| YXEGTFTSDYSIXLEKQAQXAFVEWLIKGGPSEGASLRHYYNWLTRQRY (Aib at 2, 13, 20; K28 side chain acylated with C18DA-gGlu-Glu-gGlu-gGlu-gGlu-gGlu-eLys (so in the source); C-terminal amide (NH2)) [Compound 293] | nM | 37.5 |
| Y[Aib]EGTFTSDYSI[Aib]LEKQAQ[Aib]AFIEWLIK([γGlu-γGlu-γGlu-γGlu-C20 diacid])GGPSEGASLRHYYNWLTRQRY-NH2 (also: TFA salt) [Compound 283] | nM | 104 |
| Y[Aib]EGTFTSDYSI[Aib]LEKQAE[Aib]AFVEWLIK([γGlu-γGlu-γGlu-γGlu-C20 diacid])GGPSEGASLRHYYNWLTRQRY-NH2 (also: TFA salt) [Compound 280] | nM | 91.4 |
| Y[Aib]EGTFTSDYSI[Aib]LEKQAQ[Aib]AFVEWLIK([AEEA-AEEA-γGlu-γGlu-γGlu-γGlu-C20 diacid])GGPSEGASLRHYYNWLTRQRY-NH2 (also: TFA salt) [Compound 287] | nM | 45.9 |
| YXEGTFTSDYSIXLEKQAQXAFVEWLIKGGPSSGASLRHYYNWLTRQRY (Aib at 2, 13, 20; K28 side chain acylated with C18DA-gGlu-gGlu-gGlu-gGlu-gGlu-AHX; C-terminal amide (NH2)) [Compound 260] | nM | 69.6 |
| Y[Aib]EGTFTSDYSI[Aib]LEKQAQ[Aib]EFVEWLIK([AEEA-AEEA-γGlu-γGlu-γGlu-C20 diacid])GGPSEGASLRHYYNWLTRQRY-NH2 (also: TFA salt) [Compound 273] | nM | 76.3 |
| Y[Aib]EGTFTSDYSI[Aib]LEKQAE[Aib]AFVEWLIKGGPSEGASLRHYYNWLTRQRY-NH2 (not fully specified (residue 28); also: TFA salt) [Compound 278] | nM | 88.6 |
| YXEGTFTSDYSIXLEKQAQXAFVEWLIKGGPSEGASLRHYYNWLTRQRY (Aib at 2, 13, 20; K28 side chain acylated with C20DA-gGlu-gGlu-gGlu-gGlu-gGlu-AHX; C-terminal amide (NH2)) [Compound 301] | nM | 99.3 |
| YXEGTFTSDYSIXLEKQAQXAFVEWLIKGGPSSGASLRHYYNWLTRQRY (Aib at 2, 13, 20; K28 side chain acylated with C18DA-gGlu-gGlu-gGlu-gGlu-gGlu-gGlu-eLys; C-terminal amide (NH2)) [Compound 259] | nM | 29.3 |
| Y[Aib]EGTFTSDYSI[Aib]LEKQAQ[Aib]AFVQWLIK([γGlu-γGlu-γGlu-γGlu-C18 diacid])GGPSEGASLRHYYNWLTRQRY-NH2 (also: TFA salt) [Compound 268] | nM | 47.3 |
